Target system: human calcitonin receptor (CTR) (Homo sapiens, UniProt P30988)
Experiment description: Calcitonin Receptor (CTR) cAMP Assay
Condition description: COS7-human CTR Clone #2 stable cell line, cAMP dynamic 2 kit, 30 min; read-out: Calcitonin Receptor cAMP Stimulation Activity: EC50
Value kind: EC50 (nM)

I = Cc1cc2cc(-c3c4c(nc(CCc5ccc(F)cc5)c3-c3n[nH]c(=O)o3)C35CC(CN3C4=O)C5)sc2c(N[C@@H]2CCc3cc(F)c(F)cc32)n1 [Compound 255]
II = O=C1c2c(nc(CCc3ccc(F)cc3)c(-c3n[nH]c(=O)o3)c2-c2cc3ccnc(N[C@@H]4CCc5cc(Cl)cnc54)c3s2)C23CC(CN12)C3 [Compound 266]
III = COc1cccc2c1CC[C@H]2Nc1nccc2cc(-c3c4c(nc(CCc5ccc(F)cc5)c3-c3n[nH]c(=O)o3)[C@@H]3COCCN3C4=O)sc12 [Compound 235]
Put the listed items above in order, lowest EC50 first. Please respond with the labels ordered as the question requires.
I, III, II
(I: 0.0127 nM, III: 0.236 nM, II: 2.75 nM)

* * *

Target system: human calcitonin receptor (CTR) (Homo sapiens, UniProt P30988)
Experiment description: Calcitonin Receptor (CTR) cAMP Assay
Condition description: COS7-human CTR Clone #2 stable cell line, cAMP dynamic 2 kit, 30 min; read-out: Calcitonin Receptor cAMP Stimulation Activity: EC50
Value kind: EC50 (nM)

structure_smiles_string=Cn1cc(Cc2nccc3cc(-c4c5c(nc(CCc6ccc(F)cc6)c4-c4n[nH]c(=O)o4)[C@@H]4CCCN4C5=O)sc23)c2ccccc21 target_system="human calcitonin receptor (CTR) (Homo sapiens, UniProt P30988)" value_kind=EC50 observed=857

A = O=C1c2c(nc(CCc3ccc(F)cc3)c(-c3n[nH]c(=O)o3)c2-c2cnc3c(ccn3Cc3ncc(Cl)cc3F)c2)[C@@H]2CCCN12
B = COc1cccc2c1CC[C@H]2Nc1nccc2cc(-c3c4c(nc(CCc5ccc(F)cc5)c3-c3n[nH]c(=O)o3)[C@]3(C)COCCN3C4=O)sc12
C = COc1cccc2c1CC[C@H]2Nc1nccc2cc(-c3c4c(nc(CCc5ccc(Cl)cc5)c3-c3n[nH]c(=O)o3)[C@@H]3CCCN3C4=O)sc12
D = COc1c(F)ccc2c1CC[C@H]2Nc1nccc2cc(-c3c4c(nc(CCc5ccccc5F)c3-c3n[nH]c(=O)o3)C35CC(CN3C4=O)C5)sc12
E = COc1cccc2c1CC[C@H]2Nc1nccc2cc(-c3c4c(nc(C[C@@H]5COc6cc(F)ccc65)c3-c3n[nH]c(=O)o3)[C@@H]3CCCN3C4=O)sc12
Highest EC50 first, then in falling order down to the smallest. Please respond with the labels ordered as the question requires.
E, A, B, C, D

* * *

Target system: human calcitonin receptor (CTR) (Homo sapiens, UniProt P30988)
Sequence (P30988 25-474): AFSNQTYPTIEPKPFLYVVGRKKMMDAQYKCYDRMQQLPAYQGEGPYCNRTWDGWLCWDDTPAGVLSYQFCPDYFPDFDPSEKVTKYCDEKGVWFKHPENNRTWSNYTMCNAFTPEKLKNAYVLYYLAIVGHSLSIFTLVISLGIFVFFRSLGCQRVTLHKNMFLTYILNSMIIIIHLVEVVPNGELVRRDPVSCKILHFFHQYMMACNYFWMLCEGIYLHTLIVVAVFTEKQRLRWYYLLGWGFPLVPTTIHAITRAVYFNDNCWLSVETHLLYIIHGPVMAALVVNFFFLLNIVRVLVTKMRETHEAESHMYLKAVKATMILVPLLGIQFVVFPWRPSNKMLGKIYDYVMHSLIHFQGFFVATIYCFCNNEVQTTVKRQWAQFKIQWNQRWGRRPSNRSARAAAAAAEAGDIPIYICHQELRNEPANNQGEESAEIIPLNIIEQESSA
Experiment description: Calcitonin Receptor (CTR) cAMP Assay
Condition description: COS7-human CTR Clone #2 stable cell line, cAMP dynamic 2 kit, 30 min; read-out: Calcitonin Receptor cAMP Stimulation Activity: EC50
pEC50: −log10 of the molar value.
Value kind: pEC50

P = O=C1c2c(nc(CCc3ccc(F)cc3)c(-c3n[nH]c(=O)o3)c2-c2cc3ccnc(N[C@@H]4CCc5cc(F)ccc54)c3s2)C23CC(CN12)C3
Q = COc1cc(F)cc2c1CC[C@H]2Nc1nc(C)cc2cc(-c3c4c(nc(CCc5ccc(F)cc5)c3-c3n[nH]c(=O)o3)C35CC(CN3C4=O)C5)sc12
Short answer wanted: higher pEC50, P or Q ? Lab note: record the label of whichever item you select.
Q
(Q: 10.67, P: 9.94)

* * *

Target system: COS-7/AMY3 (human calcitonin receptor (CTR) and RAMP3) (Homo sapiens, UniProt O60896+P30988)
Construct: expressed in transfected cells; host or cells: COS-7
Experiment description: Amylin Receptor cAMP Assay II
Type: cell-based
Condition description: values marked **: Amylin Receptor cAMP Assay II; COS-7/AMY3 cells, cAMP dynamic 2 kit, 30 min; read-out: Amylin Receptor cAMP Stimulation Activity: EC50
Value kind: EC50 (nM)

Please review the following examples before continuing.
molecule=COc1cccc2c1CC[C@H]2Nc1nccc2cc(-c3c4c(nc(C[C@@H]5COc6cc(F)ccc65)c3-c3n[nH]c(=O)o3)[C@@H]3CCCN3C4=O)sc12 observed=89.3
molecule=COc1cccc2c1CC[C@H]2Nc1nc(C)cc2cc(-c3c4c(nc(CCc5ccc(F)cc5)c3-c3n[nH]c(=O)o3)[C@@H]3CCCN3C4=O)sc12 observed=11.3
molecule=CN(Cc1ccc(F)c(F)c1)C(=O)c1ccc(-c2c3c(nc(CCc4ccc(F)cc4)c2-c2noc(=O)[nH]2)[C@@H]2CCCN2C3=O)s1 observed=566
molecule=O=C1c2c(nc(CCc3ccc(F)cc3)c(-c3n[nH]c(=O)o3)c2-c2ccc3c(c2)CCCN3Cc2ccc(F)cc2F)[C@@H]2CCCN12 observed=11400
molecule=COc1cccc2c1CC[C@H]2Nc1nccc2cc(-c3c(-c4n[nH]c(=O)o4)c(CCc4ccc(F)cc4)nc4c3S(=O)(=O)C[C@H]4C(C)C)sc12 observed=18.5
molecule=O=C1c2c(nc(CCc3ccc(F)cc3)c(-c3noc(=O)[nH]3)c2-c2ccc3c(ccn3Cc3ccc(F)c(F)c3)c2)[C@@H]2CCCN12 observed=16.6
molecule=COc1cc(Cl)cc2c1CC[C@H]2Nc1nccc2cc(-c3c4c(nc(CCc5ccc(F)cc5)c3-c3n[nH]c(=O)o3)[C@@H]3CCCN3C4=O)sc12 observed=23.4
molecule=C[C@H](Nc1nccc2cc(-c3c4c(nc(CCc5ccc(F)cc5)c3-c3noc(=O)[nH]3)[C@@H]3CCCN3C4=O)sc12)c1ccc(F)c(F)c1 observed=711
molecule=O=C1c2c(nc(CCc3ccc(F)cc3)c(-c3n[nH]c(=O)o3)c2-c2cc3ccnc(N[C@@H]4CCc5c(F)cc(F)cc54)c3s2)[C@@H]2CCCN12 observed=4.23
molecule="COc1cccc2c1CC[C@H]2Nc1nccc2cc(-c3c4c(nc(CCc5ccc(F)cc5)c3-c3n[nH]c(=O)o3)C35CC3CCN5C4=O)sc12 (stereo partly drawn)" observed=12.7

A = N#Cc1ccc(Cn2c(=O)oc3cc(-c4c(-c5n[nH]c(=O)o5)c(CCc5ccc(F)cc5)nc5c4c(=O)n4n5CCC4)ccc32)cc1F
B = O=C1c2c(nc(CCc3ccc(F)cc3)c(-c3n[nH]c(=O)o3)c2-c2ccc3c(Cc4ccc(F)cn4)noc3c2)[C@@H]2CCCN12
Short answer wanted: higher EC50, A or B ? Lab note: record the label of whichever item you select.
B
(B: 511 nM, A: 3.71 nM)

* * *

Target system: COS-7/AMY3 (human calcitonin receptor (CTR) and RAMP3) (Homo sapiens, UniProt O60896+P30988)
Construct: expressed in transfected cells; host or cells: COS-7
Experiment description: Amylin Receptor cAMP Assay I
Assay type: cell-based
Condition description: values marked *: Amylin Receptor cAMP Assay I; COS-7/AMY3 cells, cAMP Hi-range kit, 30 min; read-out: Amylin Receptor cAMP Stimulation Activity: EC50
Value kind: EC50 (nM)
Just the number please, in nM, no unit attached.

Answer with reported EC50 of COc1cccc2c1CC[C@H]2NC(=O)c1ccc(-c2c3c(nc(CCc4ccc(F)cc4)c2-c2noc(=O)[nH]2)[C@@H]2CCCN2C3=O)s1 [Compound 108]
121

* * *

Target system: human calcitonin receptor (CTR) (Homo sapiens, UniProt P30988)
Sequence (P30988 25-474): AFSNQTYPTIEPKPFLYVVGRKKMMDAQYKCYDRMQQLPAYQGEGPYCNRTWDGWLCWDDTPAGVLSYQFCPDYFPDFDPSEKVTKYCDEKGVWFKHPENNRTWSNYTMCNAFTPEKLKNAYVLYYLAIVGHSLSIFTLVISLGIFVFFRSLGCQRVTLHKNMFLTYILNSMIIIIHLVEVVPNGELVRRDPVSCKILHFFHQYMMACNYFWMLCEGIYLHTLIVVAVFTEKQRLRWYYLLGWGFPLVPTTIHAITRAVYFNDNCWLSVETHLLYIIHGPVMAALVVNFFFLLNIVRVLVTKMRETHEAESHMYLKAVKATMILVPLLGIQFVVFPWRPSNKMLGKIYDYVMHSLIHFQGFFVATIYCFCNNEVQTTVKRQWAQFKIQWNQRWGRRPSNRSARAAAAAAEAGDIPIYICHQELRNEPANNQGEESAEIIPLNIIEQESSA
Experiment description: Calcitonin Receptor (CTR) cAMP Assay
Condition description: COS7-human CTR Clone #2 stable cell line, cAMP dynamic 2 kit, 30 min; read-out: Calcitonin Receptor cAMP Stimulation Activity: EC50
Value kind: EC50 (nM)

structure_smiles_string=N#Cc1ccc(Cn2c(=O)oc3cc(-c4c(-c5n[nH]c(=O)o5)c(CCc5ccc(F)cc5)nc5c4c(=O)n4n5CCC4)ccc32)cc1F target_system="human calcitonin receptor (CTR) (Homo sapiens, UniProt P30988)" unit_name=nM observed=0.157

A = COc1cccc2c1CC[C@H]2N1Cc2cc(-c3c4c(nc(CCc5ccc(F)cc5)c3-c3n[nH]c(=O)o3)C35CC(CN3C4=O)C5)ccc2C1=O
B = O=C(N[C@@H]1CCc2cc(F)c(F)cc21)c1ccc(-c2c3c(nc(CCc4ccc(F)cc4)c2-c2noc(=O)[nH]2)[C@@H]2CCCN2C3=O)s1
Short answer wanted: higher EC50, A or B ? Lab note: record the label of whichever item you select.
A
(A: 8.9 nM, B: 1.24 nM)

Source of measurements: patent US12486269B2
